// data source = patent EP1724268A1

test system: TGFβ signal; assay: TGFβ signal inhibitory activity, (SBE)4-Luc reporter in A549 cells (Test Examples 1A and 1B); type: cell-based, human; conditions: Homo sapiens, A549; 3 µM; compounds of Reference Examples (Test Example 1B); read-out: TGFβ inhibition rate, %
inhibition at 3 µM of 80% or higher: Fulfilled. Under 80%: Not fulfilled.

compound_structure_string=COc1cc2nccc(Oc3ccc(C)nc3-c3ccc(F)cc3)c2cc1OC qualitative_label=Fulfilled
compound_structure_string=COc1cc2nccc(Oc3ccc(C)nc3-c3ccccc3C(C)=O)c2cc1OC qualitative_label="Not fulfilled"
compound_structure_string=COc1cc2nccc(Oc3cc(Cl)ccc3C(C)=O)c2cc1OC qualitative_label="Not fulfilled"
compound_structure_string=COc1cc2c(Oc3cc4ccccc4nc3C(C)=O)ccnc2cc1OCCN1CCCCC1 qualitative_label=Fulfilled
compound_structure_string=COc1cc2c(Oc3cc4ccccc4nc3C)ccnc2cc1OC(CO)CO qualitative_label="Not fulfilled"
compound_structure_string=COc1cc2nccc(Oc3cccnc3C)c2cc1OC qualitative_label="Not fulfilled"
compound_structure_string=COc1ccc(-c2nc(C)ccc2Oc2ccnc3cc(OC)c(OC)cc23)cc1 qualitative_label="Not fulfilled"
compound_structure_string=COc1cc2c(Oc3cc(C)c(C)nc3-c3ccc(C)cn3)ccnc2cc1OCc1ccccc1 qualitative_label="Not fulfilled"
compound_structure_string=COc1cc2nccc(Oc3ccc(C)nc3-c3cc(C)nn3C)c2cc1OC qualitative_label="Not fulfilled"
compound_structure_string=COc1cc2nccc(Oc3ccc(C)nc3C(=O)c3ccccc3)c2cc1OC qualitative_label=Fulfilled

----------
test system: TGFβ signal; experiment: TGFβ signal inhibitory activity, (SBE)4-Luc reporter in A549 cells (Test Examples 1A and 1B); format: cell-based, human; conditions: Homo sapiens, A549; test compound 3 µM; TGFβ-1 2 ng/ml, 4 hr; Table 1A; read-out: TGFβ inhibition rate, %
outcome-measure: inhibition at 3 µM (%)

molecule="Cc1cc(Oc2ccnc3cc(-c4ccsc4)ccc23)c(-c2ccccn2)nc1C [Compound 171]" scale_unit=% endpoint_value=100
molecule="Cc1ccc(Oc2ccnc3ccc(OCCC4CCCCC4)cc23)c(-c2ncccn2)n1 [Compound 216]" scale_unit=% endpoint_value=84
molecule="Cc1cc(Oc2ccnc3cc(-c4ccccn4)ccc23)c(-c2ccccn2)nc1C [Compound 176]" scale_unit=% endpoint_value=99
molecule="Cc1cc(Oc2ccnc3ccc(OCCO)cc23)c(-c2ccccn2)nc1C [Compound 142]" scale_unit=% endpoint_value=98
molecule="COc1cc2ncnc(Oc3cc(C)c(C)nc3-c3cccc(C)n3)c2cc1OC [Compound 41]" scale_unit=% endpoint_value=66

----------
tested on: TGFβ signal; assay: TGFβ signal inhibitory activity, (SBE)4-Luc reporter in A549 cells (Test Examples 1A and 1B); type: cell-based, human; settings: Homo sapiens, A549; 3 µM; compounds of Reference Examples (Test Example 1B); read-out: TGFβ inhibition rate, %
outcome-measure: inhibition at 3 µM (%)

compound=COc1cc2nccc(Oc3cc(C)c(C)cc3C(C)=NO)c2cc1OC outcome_measure="inhibition at 3 µM" endpoint_value=99
compound=COc1cc2nccc(Oc3cc4cccnc4cc3-c3ccccc3)c2cc1OC outcome_measure="inhibition at 3 µM" endpoint_value=99
compound=COc1cc2nccc(Oc3ccc(C)nc3-c3cccc(O)c3)c2cc1OC outcome_measure="inhibition at 3 µM" endpoint_value=100
compound=COc1cccc(-c2nc(C)ccc2Oc2ccnc3cc(OC)c(OC)cc23)c1 outcome_measure="inhibition at 3 µM" endpoint_value=92
compound=COc1cc2nccc(Oc3cc(C)c(C)nc3-c3cccnc3)c2cc1OC outcome_measure="inhibition at 3 µM" endpoint_value=100
compound=COc1cc2nccc(Oc3cc4ccccc4nc3-c3cc(C)c(Cl)s3)c2cc1OC outcome_measure="inhibition at 3 µM" endpoint_value=18
compound=COc1cc2nccc(Oc3cc4cccnc4nc3-c3ccc(C)cc3)c2cc1OC outcome_measure="inhibition at 3 µM" endpoint_value=67
compound=CCCOC(=O)c1cc2ccccc2cc1Oc1ccnc2cc(OCCCn3ccnc3)c(OC)cc12 outcome_measure="inhibition at 3 µM" endpoint_value=89
compound=COc1cc2nccc(Oc3c(C)cc4ncccc4c3Cl)c2cc1OC outcome_measure="inhibition at 3 µM" endpoint_value=30
compound=COc1cc2nccc(Oc3ccc(C)nc3-c3ccc(C(C)=O)cc3)c2cc1OC outcome_measure="inhibition at 3 µM" endpoint_value=64
compound=COc1cc2nccc(Oc3cc(C)c(C)cc3/C(C)=N/Oc3ccccc3)c2cc1OC outcome_measure="inhibition at 3 µM" endpoint_value=14
compound="COc1cc2c(Oc3cc(C)c(C)nc3-c3cccnc3)ccnc2cc1OCC(O)CO (stereo not shown)" outcome_measure="inhibition at 3 µM" endpoint_value=96
compound=COc1cc2c(Oc3cc4ccccc4nc3C)ccnc2cc1OCCCO outcome_measure="inhibition at 3 µM" endpoint_value=100
compound=COc1cc2c(Oc3cc4ccccc4nc3C)ccnc2cc1OCC(N)=O outcome_measure="inhibition at 3 µM" endpoint_value=85
compound=COc1cc2c(Oc3cc(C)c(C)nc3-c3cccc(C)n3)ccnc2cc1OCc1ccccc1 outcome_measure="inhibition at 3 µM" endpoint_value=70
compound=COc1cc2c(Oc3cc4ccccc4nc3C)ccnc2cc1OCC(CO)(CO)CBr outcome_measure="inhibition at 3 µM" endpoint_value=100
compound="COc1cc2c(Oc3cc(C)c(C)nc3-c3ccccn3)ccnc2cc1OCC(O)CO (stereo not shown)" outcome_measure="inhibition at 3 µM" endpoint_value=89
compound=COc1cc2nccc(Oc3cc4ccccc4nc3-c3cccnc3)c2cc1OC outcome_measure="inhibition at 3 µM" endpoint_value=94
compound=COc1cc2c(Oc3cc4ccccc4nc3C(C)=O)ccnc2cc1OCCO outcome_measure="inhibition at 3 µM" endpoint_value=93
compound=COc1cc2c(Oc3cc(C)c(C)nc3-c3ccc(C)cn3)ccnc2cc1O outcome_measure="inhibition at 3 µM" endpoint_value=72
compound=COc1cc2c(Oc3cc4ccccc4nc3C)ccnc2cc1OCCNC(=O)CC(C)(C)CC(=O)O outcome_measure="inhibition at 3 µM" endpoint_value=27
compound=COc1cc2nccc(Oc3cc4cccnc4nc3C)c2cc1OC outcome_measure="inhibition at 3 µM" endpoint_value=72
